The measured values listed here are drawn from paper PMC11274883.

Reported Cleaved BID/GAPDH normalized to control (1) values for the following molecules.
Test system: HT29 cells
Test Protocol: Western blot protein expression
Format: cell-based
Condition: HT29, IC50, 72 h, representative blot Figure S30E
Reply: number alone, nothing else.

Illustrative cases are given below, each with its answer.
Cc1c(C)c2cccnc2c2ncccc12.N[C@H]1CCCC[C@@H]1N.O=[N+]([O-])[O-].O=[N+]([O-])[O-].[OH][Pt+2][OH] :: 2.651
Cc1cc2cccnc2c2ncccc12.N[C@H]1CCCC[C@@H]1N.O=[N+]([O-])[O-].O=[N+]([O-])[O-].[OH][Pt+2][OH] :: 2.712
N[C@H]1CCCC[C@@H]1N.O=[N+]([O-])[O-].O=[N+]([O-])[O-].[OH-].[OH-].[Pt+4].c1cnc2c(c1)ccc1cccnc12 :: 2.711
N[C@H]1CCCC[C@@H]1N.O=[N+]([O-])[O-].O=[N+]([O-])[O-].[Pt+2].c1cnc2c(c1)ccc1cccnc12 :: 1.611

Lookup: What value of Cleaved BID/GAPDH normalized to control (1) has been recorded for this entry: `Cc1c(C)c2cccnc2c2ncccc12.N[C@H]1CCCC[C@@H]1N.O=[N+]([O-])[O-].O=[N+]([O-])[O-].[Pt+2]`
Found: 2.821

Lookup: Field entry: N.N.[Cl][Pt][Cl] [Cisplatin, cisplatin]
Found: 2.527

Lookup: Field entry: `Cc1cc2cccnc2c2ncccc12.N[C@H]1CCCC[C@@H]1N.O=[N+]([O-])[O-].O=[N+]([O-])[O-].[Pt+2]`
Found: 1.69

----------
Test system: ADDP
Test Protocol: WST-1 cytotoxicity, 72 h
Format: cell-based
Condition: IC50 MCF10A/IC50 ADDP
Outcome label depends on Selective cytotoxicity index (SCI) relative to 1: at/above gives Satisfied, below gives Not satisfied.

Use these answered entries as a reference point.
N[C@H]1CCCC[C@@H]1N.O=[N+]([O-])[O-].O=[N+]([O-])[O-].[OH-].[OH-].[Pt+4].c1cnc2c(c1)ccc1cccnc12 :: Satisfied
Cc1c(C)c2cccnc2c2ncccc12.N[C@H]1CCCC[C@@H]1N.O=[N+]([O-])[O-].O=[N+]([O-])[O-].[Pt+2] [Pt^II56MESS] :: Not satisfied
Cc1c(C)c2cccnc2c2ncccc12.N[C@H]1CCCC[C@@H]1N.O=[N+]([O-])[O-].O=[N+]([O-])[O-].[OH][Pt+2][OH] [Pt^IV56MESS(OH)2] :: Satisfied
Cc1cc2cccnc2c2ncccc12.N[C@H]1CCCC[C@@H]1N.O=[N+]([O-])[O-].O=[N+]([O-])[O-].[Pt+2] [Pt^II5MESS] :: Not satisfied
N[C@H]1CCCC[C@@H]1N.O=[N+]([O-])[O-].O=[N+]([O-])[O-].[Pt+2].c1cnc2c(c1)ccc1cccnc12 :: Satisfied

Next item in the queue.
Lookup: State whether the measured Selective cytotoxicity index (SCI) reaches 1, counting equality as reaching it, for Cc1cc2cccnc2c2ncccc12.N[C@H]1CCCC[C@@H]1N.O=[N+]([O-])[O-].O=[N+]([O-])[O-].[OH][Pt+2][OH] [Pt^IV5MESS(OH)2]
Found: Satisfied

----------
Test system: MDA−MB−231 cells
Test Protocol: Cellular uptake of Pt by ICP-MS
Type: cell-based
Condition: MDA−MB−231, 3 µM, 0.5 h
Metric Name: Intracellular Concentration (nmol/10^6 cells)
Please state the figure in nmol/10^6 cells; there is no need to write the unit.

Lookup: What value of Intracellular Concentration has been recorded for this entry: `Cc1c(C)c2cccnc2c2ncccc12.N[C@H]1CCCC[C@@H]1N.O=[N+]([O-])[O-].O=[N+]([O-])[O-].[OH][Pt+2][OH]`
Found: 0.11
